Biological target: Vascular endothelial growth factor receptor 2 (Homo sapiens)
Sequence (P35968 whole entry): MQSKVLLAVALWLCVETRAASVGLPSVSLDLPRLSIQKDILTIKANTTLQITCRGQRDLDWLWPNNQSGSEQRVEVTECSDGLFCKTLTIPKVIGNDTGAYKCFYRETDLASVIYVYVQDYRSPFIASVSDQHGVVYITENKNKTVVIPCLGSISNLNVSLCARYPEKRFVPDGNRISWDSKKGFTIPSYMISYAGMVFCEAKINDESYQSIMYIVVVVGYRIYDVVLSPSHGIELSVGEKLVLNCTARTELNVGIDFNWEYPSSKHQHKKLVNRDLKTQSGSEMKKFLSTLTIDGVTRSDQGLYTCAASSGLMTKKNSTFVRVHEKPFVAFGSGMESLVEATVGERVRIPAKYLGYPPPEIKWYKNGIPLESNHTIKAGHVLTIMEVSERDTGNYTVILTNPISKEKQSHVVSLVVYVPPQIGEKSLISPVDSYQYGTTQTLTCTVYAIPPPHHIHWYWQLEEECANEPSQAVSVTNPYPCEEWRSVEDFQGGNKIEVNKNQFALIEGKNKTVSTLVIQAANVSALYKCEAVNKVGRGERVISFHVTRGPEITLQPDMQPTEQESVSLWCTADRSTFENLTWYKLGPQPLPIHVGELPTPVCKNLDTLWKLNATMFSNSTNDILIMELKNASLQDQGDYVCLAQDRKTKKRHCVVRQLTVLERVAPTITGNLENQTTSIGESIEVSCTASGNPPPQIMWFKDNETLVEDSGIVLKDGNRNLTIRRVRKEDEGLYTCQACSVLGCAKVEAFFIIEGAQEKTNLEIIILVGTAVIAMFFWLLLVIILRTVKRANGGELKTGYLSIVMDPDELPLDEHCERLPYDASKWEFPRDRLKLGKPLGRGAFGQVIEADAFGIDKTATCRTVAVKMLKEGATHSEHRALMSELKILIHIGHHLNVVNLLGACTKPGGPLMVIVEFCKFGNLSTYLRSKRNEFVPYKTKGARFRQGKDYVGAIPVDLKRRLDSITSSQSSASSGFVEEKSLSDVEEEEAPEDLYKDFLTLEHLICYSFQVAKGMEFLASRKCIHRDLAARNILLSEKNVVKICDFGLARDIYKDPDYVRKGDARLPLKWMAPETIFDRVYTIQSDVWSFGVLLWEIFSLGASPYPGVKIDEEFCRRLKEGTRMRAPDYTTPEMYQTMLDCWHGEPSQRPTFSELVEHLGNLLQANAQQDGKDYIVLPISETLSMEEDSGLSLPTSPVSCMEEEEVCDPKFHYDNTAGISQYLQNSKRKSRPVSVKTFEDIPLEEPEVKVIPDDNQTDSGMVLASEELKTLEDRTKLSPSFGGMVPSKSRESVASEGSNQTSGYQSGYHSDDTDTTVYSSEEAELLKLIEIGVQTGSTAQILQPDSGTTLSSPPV
pIC50: −log10 of the molar value.
Test readout: pIC50

Worked examples, 2 molecules total:
CNC(=O)c1ccc(Sc2cccc(NC(=S)Nc3ccc(Cl)cc3)c2)nc1 5.22
CNC(=O)c1ccc(Sc2cccc(NC(=S)Nc3ccc(F)c(F)c3)c2)nc1 5.41

I = CNC(=O)c1ccc(Sc2cccc(NC(=S)Nc3ccc(Br)c(C(F)(F)F)c3)c2)nc1
II = CNC(=O)c1ccc(Sc2cccc(NC(=S)Nc3cccc(C(F)(F)F)c3)c2)nc1
(Q) Of I and II , whose reported pIC50 is the larger number? Bench note: the answer is the label of the chosen record.
(A) I
(I: 6.88, II: 5.16)
